targetOrSystem: BRD4 (BD1+BD2) bromodomain (Homo sapiens (Human), UniProt O60885)
assaySummary: BRD4 binding inhibition (AlphaScreen, GST-BRD4 vs tetraacetylated histone H4 peptide)
conditionNotes: GST-BRD4 (BD1+BD2) vs biotinylated acetyl-histone H4 peptide, AlphaScreen; read-out: BRD4 IC50
measure: pIC50
Give bare numbers, as −log10 of the molar value.

Some solved cases for reference:
[
  {
    "compound": "COc1cc2nc(NCCCCNC(=O)c3ccc(Cl)cc3)c3nnc(C)n3c2cc1OC",
    "pIC50": 7.16
  },
  {
    "compound": "Cc1nnc2c(NCCCCNC(=O)CC(C)C)nc3cc(NCCCC#N)ccc3n12",
    "pIC50": 8.15
  },
  {
    "compound": "Cc1nnc2c(NCCCCNC(=O)CC(C)C)nc3cc(OCc4ccc(-c5nn[nH]n5)cc4)ccc3n12",
    "pIC50": 7.00
  }
]

Provide pIC50 for all items below, preserving their order.
1. Cc1nnc2c(NCCCCNC(=O)OC(C)(C)C)nc3cc(N4CCOCC4)ccc3n12
2. CCC(C)OC(=O)NCCCCNc1nc2cc(OC)c(OC)cc2n2c(C)nnc12 (centres unmarked)

1: 7.42; 2: 7.92

---

targetOrSystem: BRD4 (BD1+BD2) bromodomain (Homo sapiens (Human), UniProt O60885)
assaySummary: BRD4 binding inhibition (AlphaScreen, GST-BRD4 vs tetraacetylated histone H4 peptide)
conditionNotes: GST-BRD4 (BD1+BD2) / biotinylated acetyl-histone H4 (Lys5,8,12,16) peptide; read-out: IC50, BRD4 binding inhibition
measure: IC50

Would you please look over these solved cases?
[
  {
    "compound": "CCOc1ccc2c(c1)nc(NCCCCNC(=O)OC1CCCC1)c1nnc(C)n12 [Example 445]",
    "IC50": "≤ 50 nM"
  },
  {
    "compound": "COCCOc1ccc2c(c1)nc(NCCCCNC(=O)C(C)C)c1nnc(C)n12 [Example 376]",
    "IC50": "≤ 50 nM"
  },
  {
    "compound": "COCCOc1ccc2c(c1)nc(NCCCCNC(=O)C(NC(=O)OC(C)(C)C)C(C)C)c1nnc(C)n12 (stereo not shown) [Example 396]",
    "IC50": "≤ 10 nM"
  }
]

Please find the next compound below.
Measured IC50 of COCCOc1ccc2c(c1)nc(NCCCCNC(=O)Cc1ccccc1)c1nnc(C)n12 [Example 420] : ≤ 10 nM

---

Please go through the items and note down their pIC50.
targetOrSystem: BRD4 (BD1+BD2) bromodomain (Homo sapiens (Human))
assaySummary: BRD4 binding inhibition (AlphaScreen, GST-BRD4 vs tetraacetylated histone H4 peptide)
conditionNotes: GST-BRD4 (BD1+BD2) vs biotinylated acetyl-histone H4 peptide, AlphaScreen; read-out: BRD4 IC50
Experimental: A mixture comprising 100 nM GST-BRD4 (BD1+BD2) and 100 nM biotinylated acetyl-histone H4 (Lys5,8,12,16) peptide was prepared in assay buffer (50 mM HEPES pH 7.4; 25 mM NaCl; 0.05% Tween 20; 0.1% bovine serum albumin (BSA); 10 mM dithiothreitol (DTT)). […] Then, the signals were measured with PerkinElmer Envision HTS Multilabel Reader using an alpha screen protocol of PerkinElmer. […]
Answers are plain numbers, as −log10 of the molar value.

// below: answered compounds
[
  {
    "compound": "COc1ccc2nc(NCCCCNC(=O)[C@H](O)C(C)C)c3nnc(C)n3c2c1",
    "observedMeasurement": 7.51
  },
  {
    "compound": "Cc1nnc2c(NCCCCNC(=O)OC(C)(C)C)nc3ccc([N+](=O)[O-])cc3n12",
    "observedMeasurement": 7.43
  },
  {
    "compound": "COc1ccc2nc(NCCCCNC(=O)c3ccccc3)c3nnc(C)n3c2c1",
    "observedMeasurement": 7.34
  },
  {
    "compound": "COc1ccc2c(c1)nc(NCCCCNC(=O)Cc1ccco1)c1nnc(C)n12",
    "observedMeasurement": 7.24
  },
  {
    "compound": "COc1cc2nc(NCCCCNC(=O)CC(C)C)c3nnc(C)n3c2cc1[N+](=O)[O-]",
    "observedMeasurement": 7.19
  }
]

Quick request: pIC50 for each listed item, please.
1. COc1ccc2c(c1)nc(NCCCCNC(=O)C(C)(C)C(F)(F)F)c1nnc(C)n12
2. CCC(C)C(=O)NCCCCNc1nc2cc(OC(C)C)ccc2n2c(C)nnc12 (centres unmarked)
3. CSc1ccc2c(c1)nc(NCCCCNC(=O)[C@@H](O)C(C)C)c1nnc(C)n12
4. COc1ccc2c(c1)nc(NCCCCNC(=O)NC1CCCCC1)c1nnc(C)n12
5. Cc1nnc2c(NCCCCNC(=O)OC3CCCC3)nc3cc(-c4nc5ccccc5n4C)ccc3n12
6. Cc1nnc2c(NCCCCNC(=O)[C@@H](NC(=O)[C@@H](F)C(C)C)C(C)C)nc3cc(N4C[C@@H](C)O[C@@H](C)C4)ccc3n12

[7.40, 7.72, 8.15, 7.80, 8.52, 7.42]

# batch: return pIC50 for each of the 6 compounds below
1. Cc1nnc2c(NCCCCNC(=O)c3ccccc3Cl)nc3cc(Cl)c(Cl)cc3n12
2. COCCOc1ccc2c(c1)nc(NCCCCNC(=O)CCC1CCCC1)c1nnc(C)n12
3. COc1cc2nc(NCCCCC(=O)NC(C)C)c3nnc(C)n3c2cc1OC
4. CCC(C)CC(=O)NCCCCNc1nc2cc(-n3ccnc3)ccc2n2c(C)nnc12 (centres unmarked)
5. CCCOC(=O)NCCCCNc1nc2cc(OCCOC)ccc2n2c(C)nnc12
6. COCCOc1cc2nc(NCCCCNC(=O)c3ccccc3)c3nnc(C)n3c2cc1OCCOC

[7.05, 8.52, 7.54, 7.92, 8.30, 7.42]
